I'd be grateful if you could share measured abundance fitness for these entries.
B1: Homeobox protein cut-like 2, residues 895 to 963; numbered along this chain, O14529 (parent)
chain: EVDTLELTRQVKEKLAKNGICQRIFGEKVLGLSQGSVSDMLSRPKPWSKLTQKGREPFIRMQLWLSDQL

Variants of: B1
Experiment: abundance fitness (aPCA) (normalised: wild type 0, dead -1); higher = more abundant; growth selection in yeast, the domain comes from the species named
Settings: Homo sapiens

q: Recorded abundance fitness for `D67M` , please?
a: -0.25

q: What does the data say about its abundance fitness? Entry: `I20M`
a: -0.023

q: Name the recorded abundance fitness for `L15Y` .
a: -0.124

q: Param item = `K12S` ; retrieve measured abundance fitness.
a: -0.387

q: Entry `L7D` : reported abundance fitness = ?
a: -0.074

q: // lookup abundance fitness for `L5A`
a: 0.028

q: Please report the recorded abundance fitness for `S33F` .
a: -0.009

q: Quick one: abundance fitness for `V37P` ?
a: -0.311

q: Request the reported abundance fitness associated with `R9M`
a: 0.006

q: Looking for the measured abundance fitness of `T8Y` , can you help?
a: -0.309

q: Which abundance fitness reading was recorded for the variant `Q62S` ?
a: -0.079

q: Which abundance fitness is listed for `S48F` ?
a: -0.19

q: Consider the variant shown here: `M61E` What is its recorded abundance fitness?
a: -1.02

q: Give its abundance fitness value. Item: `I59T`
a: -0.049

q: Using the record for `L41V` , report its abundance fitness.
a: -0.518

q: For the variant `E27K` , what abundance fitness is on record?
a: 0.001

q: I would be grateful if you could share the reported abundance fitness for `S33L` .
a: -0.057

q: Consider the variant `R43C` and give its measured abundance fitness.
a: -0.14

q: What measured abundance fitness goes with `T8I` ?
a: -0.107

q: Name the recorded abundance fitness for `S42P` .
a: -0.159

q: Form field: reported abundance fitness of `K14Y`
a: -0.045

q: Fill in: abundance fitness of `K28C` is ___
a: -0.293

q: Consider the variant `L15T` and give its measured abundance fitness.
a: -0.343

q: Item under review: `C21R` . Reported abundance fitness?
a: -0.087

q: What measured abundance fitness goes with `Q22I` ?
a: -0.223

q: Consider the variant `I24F` and give its measured abundance fitness.
a: 0.143

q: Find the recorded abundance fitness belonging to `F25C` and report it.
a: -0.707

q: Tell me the measured abundance fitness of `T51K` , please.
a: -0.115

q: What does the data say about its abundance fitness? Entry: `E13K`
a: -0.101

q: // abundance fitness lookup, key: `K28M`
a: -0.155

q: Item `Q22C` has what recorded abundance fitness?
a: -0.306

q: Fill in the blank: the reported abundance fitness of `E13S` is ____.
a: -0.129

q: Entry `V29A` : reported abundance fitness = ?
a: -0.36

q: Tell me the measured abundance fitness of `L41P` , please.
a: -0.257

q: Please give the measured abundance fitness for this variant: `I24K`
a: -0.084

q: Look at this variant and give its reported abundance fitness. `S36L`
a: 0.021

q: Requested read-out: abundance fitness. Entry: `L41T`
a: -0.505

q: Name the reported abundance fitness value associated with the variant `R43I`
a: -0.329

q: Would you mind telling me what abundance fitness value was observed for `V11W` ?
a: -0.313

q: What abundance fitness value was documented for this variant, `M40W` ?
a: 0.048

q: Need abundance fitness, item `L41I`
a: -0.315

q: Which abundance fitness value belongs to `L15A` ?
a: 0.038

q: Please report the recorded abundance fitness for `Q10E` .
a: -0.214

q: Looking for the measured abundance fitness of `G26S` , can you help?
a: -0.035

q: Look up abundance fitness: `Q52M`
a: -0.106

q: # abundance fitness lookup, item `G26R`
a: -0.295
